Assay: supercomplex reporter luminescence per Hoechst cell count – Hoechst nuclei count (AID 1645838);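 note: control cybrid cells; higher means more mitochondrial supercomplex formation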
Conditions: Cells, luminescence/Hoechst cell count ratio, stronger effect = higher value
Among all 2,000 compounds or so, about 100 (5%) were called active. Shown is part of a subset that was picked to be rich in actives.
z-score reference
Lab note: record just the number, no unit beside it.

> print(dat)
                                   molecule  quantity.kind  endpoint.result
1  CC(=O)O[C@@]12C[C@@H](C)[C@@]3(O)[C@@H](C=C(CO)C[C@]4(O)C(=O)C(C)=C[C@@H]34)[C@@H]1C2(C)C        z-score             2.36
2  NC(=O)c1cccc(-c2cccc(OC(=O)NC3CCCCC3)c2)c1        z-score           -0.595
3  CC(C)(C)OC(=O)Nc1ccc(-c2cc(C(=O)NCCCCCCC(=O)NO)no2)cc1        z-score             4.81
4  CCCCCC(=O)CC[C@H]1C(=O)C[C@H](O)[C@@H]1C/C=C\CCCC(=O)O        z-score            0.618
5  CCCCC/C=C\C/C=C\CCCCCCCC(=O)OCC(COC(=O)CCCCCCCCCCCCCCC)OC(=O)CCCCCCC/C=C\CCCCCCCC (stereo unspecified)        z-score            0.273

Exercise: Quote z-score reported for "CCCCC[C@H](O)/C=C/[C@@H]1[C@H]2C[C@H](CCCCC(=O)O)O[C@H]2C[C@H]1O" please.
Solution: 0.18

Exercise: Query z-score for "CCCCC[C@H](O)/C=C/[C@H]1[C@H](O)CC(=O)[C@@H]1CC(=O)CCCCC(=O)O"
Solution: 0.036

Exercise: Provide one value: measured z-score of "NCCCNCCCCN(CCCN)[N+]([O-])=NO"
Solution: 1.09

Exercise: Read off the recorded z-score for "CCCCCCCCCCCCCCCCCC(=O)NCCO"
Solution: -0.675

Exercise: Tell us which z-score value is on record for "CCCCC[C@H](O)/C=C/[C@@H]1[C@@H](CCCCCCC(=O)O)[C@H](O)C[C@@H]1O"
Solution: -0.12

Exercise: Quickly give me recorded z-score for "CCCCCCCCCCCSCC(=O)O"
Solution: -0.636

Exercise: Please indicate z-score recorded for CC(C(=O)Nc1cccc(N=Cc2c(O)ccc3ccccc23)c1)c1ccccc1 (stereo unspecified)
Solution: -0.78

Exercise: Name the recorded z-score of the item CC#CCC(C)[C@H](O)/C=C/[C@@H]1[C@H]2C/C(=C\CCCC(=O)O)C[C@H]2C[C@H]1O (stereo partly specified) in your answer.
Solution: -0.395

Exercise: Retrieve z-score measured for "O=C(O)CCCCCC[C@@H]1[C@@H](CC[C@@H](O)CCc2cccc(C(F)(F)F)c2)[C@H](O)C[C@@H]1O" and print it.
Solution: -0.0245

Exercise: Complete the entry with z-score for "CCCCCCCCCCCC(=O)NC[C@]1(C)CCC[C@]2(C)c3ccc(C(C)C)cc3CC[C@@H]12"
Solution: 0.0192

Exercise: Give z-score for "CCCCC[C@H](O)/C=C/[C@@H]1[C@@H](C/C=C\CCCC(=O)NC(CO)CO)[C@@H](O)C[C@H]1O"
Solution: -0.166

Exercise: Retrieve z-score measured for CCC(O)/C=C/C=O (stereo unspecified) and print it.
Solution: 0.341

Exercise: Output z-score of "O=c1c(-c2ccc(O)cc2)coc2cc(O)ccc12"
Solution: 0.504
